# measured_on: native human TRPA1 receptors (Homo sapiens)
# Construct: stably expressing native human TRPA1 receptors were used; endogenous in cells; host or cells: A549 human lung adenocarcinoma epithelial cell line
# method_summary: PF-4840154 (1 μM)-induced Ca2+ fluorescence measurements in A549 cell line
# Assay type: cell-based
# run_parameters: against PF-4840154 (1 μM)-evoked [Ca2+]i mobilization, A549 cells
Entries and their measured IC50 follow.
Could you give me the number in nM? Just the number is fine.

Solved entries:
[
  {
    "chemical_smiles": "C=C(C(=O)NCc1cc(-c2ccc(C(F)(F)F)cc2)nc(N2CCOCC2)c1)N(CC)S(=O)(=O)c1ccc(Cl)s1",
    "measured_parameter": "IC50",
    "unit_abbrev": "nM",
    "reported_result": 48
  },
  {
    "chemical_smiles": "C=C(C(=O)NCc1ccnc(-c2ccc(OC(F)(F)F)cc2)c1)N(C)S(=O)(=O)c1ccc(F)cc1",
    "measured_parameter": "IC50",
    "unit_abbrev": "nM",
    "reported_result": 135
  },
  {
    "chemical_smiles": "CCN(C1(C(=O)NCc2ccnc(-c3ccc(C(F)(F)F)cc3)c2)CC1)S(=O)(=O)c1ccc(Cl)s1",
    "measured_parameter": "IC50",
    "unit_abbrev": "nM",
    "reported_result": 63
  },
  {
    "chemical_smiles": "CCN(C1(C(=O)NCc2cc(-c3ccc(C(F)(F)F)cc3)nc(N(C)C)c2)CC1)S(=O)(=O)c1ccc(F)cc1",
    "measured_parameter": "IC50",
    "unit_abbrev": "nM",
    "reported_result": 151
  },
  {
    "chemical_smiles": "C=C(C(=O)NCc1ccnc(-c2ccc(OC(F)(F)F)cc2)c1)N(C)S(=O)(=O)c1ccc(Cl)cc1",
    "measured_parameter": "IC50",
    "unit_abbrev": "nM",
    "reported_result": 78
  },
  {
    "chemical_smiles": "CCN(C1(C(=O)NCc2cc(-c3ccc(C(F)(F)F)cc3)nc(N3CCCC3)c2)CC1)S(=O)(=O)c1ccc(F)cc1",
    "measured_parameter": "IC50",
    "unit_abbrev": "nM",
    "reported_result": 41
  }
]

Now look at this entry.
response.value for CCN(C1(C(=O)NCc2ccnc(-c3ccc(OC(F)(F)F)cc3)c2)CC1)S(=O)(=O)c1ccc(Cl)s1 (field: IC50) = 129

----------
Documented inhibition at 10 µM across a set of compounds
# measured_on: native human TRPA1 receptors (Homo sapiens)
# Construct: stably expressing native human TRPA1 receptors were used; endogenous in cells; host or cells: A549 human lung adenocarcinoma epithelial cell line
# method_summary: PF-4840154 (1 μM)-induced Ca2+ fluorescence measurements in A549 cell line
# Assay type: cell-based
# run_parameters: 10 μM compound against 1 μM PF-4840154, A549 cells
# do not omit the unit; it follows the number

For record C=C(C(=O)NCc1ccnc(-c2ccc(C(F)(F)F)cc2)c1)N(CC)S(=O)(=O)c1ccc(F)c(F)c1 the listed inhibition at 10 µM is 100%

Reported inhibition at 10 µM for O=C(NCc1cc(-c2ccc(C(F)(F)F)cc2)nc(N2CCCC2)c1)C1(NS(=O)(=O)c2ccc(F)cc2)CC1 was 80%

Record summary for C/C=C(/C(=O)NCc1cccc(-c2ccc(C(F)(F)F)cc2)c1)N(C)S(=O)(=O)c1ccc(Cl)cc1 : reported inhibition at 10 µM = 98%

The compound C=C(C(=O)NCc1cc(-c2ccc(C(F)(F)F)cc2)nc(N2CCCC2)c1)N(CC)S(=O)(=O)c1ccc(Cl)s1 showed inhibition at 10 µM equal to 100%

----------
# measured_on: native human TRPA1 receptors (Homo sapiens, UniProt O75762)
# Construct: stably expressing native human TRPA1 receptors were used; endogenous in cells; host or cells: A549 human lung adenocarcinoma epithelial cell line
# Sequence (O75762 whole entry): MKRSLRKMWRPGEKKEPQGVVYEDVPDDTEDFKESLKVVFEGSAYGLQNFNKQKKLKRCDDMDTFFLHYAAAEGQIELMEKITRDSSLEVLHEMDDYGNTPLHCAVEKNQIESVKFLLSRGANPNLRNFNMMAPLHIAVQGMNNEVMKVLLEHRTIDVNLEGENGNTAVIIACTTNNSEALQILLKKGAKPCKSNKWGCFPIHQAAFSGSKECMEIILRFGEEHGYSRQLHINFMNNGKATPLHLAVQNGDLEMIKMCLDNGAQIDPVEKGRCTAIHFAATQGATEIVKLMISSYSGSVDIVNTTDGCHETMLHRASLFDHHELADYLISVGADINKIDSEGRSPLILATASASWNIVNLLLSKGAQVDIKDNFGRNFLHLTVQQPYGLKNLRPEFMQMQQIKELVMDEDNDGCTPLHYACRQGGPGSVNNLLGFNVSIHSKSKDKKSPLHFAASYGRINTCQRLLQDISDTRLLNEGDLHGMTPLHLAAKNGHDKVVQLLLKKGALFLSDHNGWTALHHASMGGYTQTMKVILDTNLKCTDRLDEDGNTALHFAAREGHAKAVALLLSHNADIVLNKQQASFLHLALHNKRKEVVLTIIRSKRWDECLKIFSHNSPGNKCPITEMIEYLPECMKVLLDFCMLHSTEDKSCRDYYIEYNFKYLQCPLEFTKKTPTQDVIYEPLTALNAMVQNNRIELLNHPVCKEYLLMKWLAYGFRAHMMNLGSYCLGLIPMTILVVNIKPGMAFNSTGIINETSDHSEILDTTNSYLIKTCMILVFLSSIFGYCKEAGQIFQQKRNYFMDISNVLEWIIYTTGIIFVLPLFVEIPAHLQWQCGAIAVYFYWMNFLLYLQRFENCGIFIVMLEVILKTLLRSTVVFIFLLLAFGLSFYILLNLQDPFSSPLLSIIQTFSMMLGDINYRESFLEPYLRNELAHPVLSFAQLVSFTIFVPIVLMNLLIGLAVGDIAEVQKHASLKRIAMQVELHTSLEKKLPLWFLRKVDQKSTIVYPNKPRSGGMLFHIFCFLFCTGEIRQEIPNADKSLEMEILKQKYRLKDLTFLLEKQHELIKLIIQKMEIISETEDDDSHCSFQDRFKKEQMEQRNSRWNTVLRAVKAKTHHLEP
# method_summary: PF-4840154 (1 μM)-induced Ca2+ fluorescence measurements in A549 cell line
# Assay type: cell-based
# run_parameters: against PF-4840154 (1 μM)-evoked [Ca2+]i mobilization, A549 cells
// returns Not met unless IC50 is strictly below 300 nM, in which case Met

[
  {
    "compound": "C=C(C(=O)NCc1cc(-c2ccc(C(F)(F)F)cc2)nc(N2CCCC2)c1)N(CC)S(=O)(=O)c1ccc(Cl)s1 [Example 15]",
    "class_label": "Met"
  }
]

Does the reported IC50 of C=C(C(=O)NCc1ccnc(-c2ccc(C(F)(F)F)cc2)c1)N(CC)S(=O)(=O)c1ccc(F)cc1 [Example 1] stay below 300 nM?
Met

Strictly below 300 nM in IC50? C=C(C(=O)NCc1cc(-c2ccc(C(F)(F)F)cc2)nc(-c2ccc(C(F)(F)F)cc2)c1)N(CC)S(=O)(=O)c1ccc(Cl)cc1 [Example 19]
Met

Given C=C(C(=O)NCc1cc(-c2ccc(OC(F)(F)F)cc2)nc(N2CCOCC2)c1)N(C)S(=O)(=O)c1ccc(Cl)cc1 [Example 16] , is recorded IC50 strictly lower than 300 nM?
Not met

Strictly below 300 nM in IC50? CCN(C1(C(=O)NCc2cc(-c3ccc(OC(F)(F)F)cc3)nc(N3CCCC3)c2)CC1)S(=O)(=O)c1ccc(F)cc1 [Example 61]
Not met

----------
# measured_on: TRPA1 (cultured rat dorsal root ganglia neurons) (Rattus norvegicus, UniProt Q6RI86)
# Construct: calcium assay data obtained in primary culture of rat dorsal ganglia neurons
# Sequence (Q6RI86 whole entry): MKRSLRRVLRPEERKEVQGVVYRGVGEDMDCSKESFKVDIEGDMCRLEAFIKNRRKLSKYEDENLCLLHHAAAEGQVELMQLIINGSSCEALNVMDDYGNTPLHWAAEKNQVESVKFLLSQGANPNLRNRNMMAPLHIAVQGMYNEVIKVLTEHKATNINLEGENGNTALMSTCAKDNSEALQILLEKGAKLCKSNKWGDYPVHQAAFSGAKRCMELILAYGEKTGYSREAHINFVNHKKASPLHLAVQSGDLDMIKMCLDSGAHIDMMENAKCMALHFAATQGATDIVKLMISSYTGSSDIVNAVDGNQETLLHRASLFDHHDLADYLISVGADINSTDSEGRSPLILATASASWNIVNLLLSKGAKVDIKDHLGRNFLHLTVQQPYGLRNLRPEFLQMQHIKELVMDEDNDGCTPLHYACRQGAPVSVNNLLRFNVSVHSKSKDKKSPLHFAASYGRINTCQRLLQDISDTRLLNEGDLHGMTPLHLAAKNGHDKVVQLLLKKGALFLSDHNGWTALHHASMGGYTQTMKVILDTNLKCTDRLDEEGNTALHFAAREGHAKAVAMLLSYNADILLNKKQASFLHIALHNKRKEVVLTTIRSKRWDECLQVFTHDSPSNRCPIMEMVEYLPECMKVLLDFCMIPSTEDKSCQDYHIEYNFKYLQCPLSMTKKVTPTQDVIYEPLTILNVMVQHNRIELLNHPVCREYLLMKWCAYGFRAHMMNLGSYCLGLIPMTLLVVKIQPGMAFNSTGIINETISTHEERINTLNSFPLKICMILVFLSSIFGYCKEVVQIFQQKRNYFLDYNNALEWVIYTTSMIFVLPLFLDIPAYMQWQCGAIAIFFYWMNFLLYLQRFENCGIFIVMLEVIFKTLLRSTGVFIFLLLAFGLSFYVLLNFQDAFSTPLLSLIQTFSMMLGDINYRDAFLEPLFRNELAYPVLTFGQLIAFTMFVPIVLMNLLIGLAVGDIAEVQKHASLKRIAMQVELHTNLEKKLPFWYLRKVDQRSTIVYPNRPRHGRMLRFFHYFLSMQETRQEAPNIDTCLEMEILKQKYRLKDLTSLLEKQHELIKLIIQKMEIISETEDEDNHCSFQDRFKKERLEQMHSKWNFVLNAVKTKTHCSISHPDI
# method_summary: PF-4840154 (10 μM)-induced Ca2+ fluorescence measurements in cultured rat dorsal root ganglia neurons
# run_parameters: against 10 μM PF-4840154-induced [Ca2+]i mobilization, primary culture of rat dorsal ganglia neurons
measured_parameter: pIC50
pIC50 (log units): -log10 of the concentration in mol/L.

Take a look at these entries with their results.
[
  {
    "chemical_smiles": "C=C(C(=O)NCc1cc(-c2ccc(C(F)(F)F)cc2)nc(-c2ccc(C(F)(F)F)cc2)c1)N(CC)S(=O)(=O)c1ccc(Cl)cc1",
    "pIC50": 7.17
  },
  {
    "chemical_smiles": "C=C(C(=O)NCc1ccnc(-c2ccc(C(F)(F)F)cc2)c1)N(CC)S(=O)(=O)c1ccc(F)cc1",
    "pIC50": 7.85
  },
  {
    "chemical_smiles": "C=C(C(=O)NCc1ccnc(-c2ccc(OC(F)(F)F)cc2)c1)N(CC)S(=O)(=O)c1ccc(Cl)s1",
    "pIC50": 7.54
  },
  {
    "chemical_smiles": "C=C(C(=O)NCc1cc(-c2ccc(C(F)(F)F)cc2)nc(N2CCCC2)c1)N(CC)S(=O)(=O)c1ccc(Cl)cc1",
    "pIC50": 7.22
  },
  {
    "chemical_smiles": "C=C(C(=O)NCc1cc(-c2ccc(C(F)(F)F)cc2)nc(N2CCCC2)c1)N(CC)S(=O)(=O)c1ccc(Cl)s1",
    "pIC50": 7.49
  }
]

Looking up C=C(C(=O)NCc1cccc(-c2ccc(OC(F)(F)F)cc2)c1)N(CC)S(=O)(=O)c1ccc(F)cc1 , I found its pIC50 recorded as 7.70

The compound identified as C=C(C(=O)NCc1cc(-c2ccc(C(F)(F)F)cc2)nc(N2CCCC2)c1)N(CC)S(=O)(=O)c1ccc(F)cc1 registered its pIC50 at 7.85

For reference, reported pIC50 for C=C(C(=O)NCc1cccc(-c2ccc(C(F)(F)F)cc2)c1)N(CC)S(=O)(=O)c1ccc(Cl)cc1 stands at 7.33

----------
# measured_on: native human TRPA1 receptors (Homo sapiens)
# Construct: stably expressing native human TRPA1 receptors were used; endogenous in cells; host or cells: A549 human lung adenocarcinoma epithelial cell line
# method_summary: PF-4840154 (1 μM)-induced Ca2+ fluorescence measurements in A549 cell line
# Type: cell-based
# run_parameters: against PF-4840154 (1 μM)-evoked [Ca2+]i mobilization, A549 cells
measured_parameter: IC50 (nM)
Kindly provide the numeric value in nM only, without the unit symbol.

[
  {
    "chemical_smiles": "C=C(C(=O)NCc1ccnc(-c2ccc(OC(F)(F)F)cc2)c1)N(C)S(=O)(=O)c1ccc(C)cc1",
    "measured_on": "native human TRPA1 receptors (Homo sapiens)",
    "measured_parameter": "IC50",
    "reported_result": 355
  }
]

The value of IC50 measured for the molecule CN(C1(C(=O)NCc2cccc(-c3ccc(C(F)(F)F)cc3)c2)CC1)S(=O)(=O)c1ccc(F)cc1 turned out to be 160

Lab note: C=C(C(=O)NCc1cccc(-c2ccc(C(F)(F)F)cc2)c1)N(C)S(=O)(=O)c1ccc(Cl)cc1 gave IC50 of 68

Just so you know, measured IC50 for C=C(C(=O)NCc1cc(-c2ccc(OC(F)(F)F)cc2)nc(-c2ccc(OC(F)(F)F)cc2)c1)N(C)S(=O)(=O)c1ccc(Cl)cc1 came out at 251

IC50 reading for C=C(C(=O)NCc1cc(OC)nc(-c2ccc(C(F)(F)F)cc2)c1)N(CC)S(=O)(=O)c1ccc(F)cc1 : 16

Field IC50 (entry C=C(C(=O)NCc1cc(-c2ccc(C(F)(F)F)cc2)nc(N2CCCC2)c1)N(C)S(=O)(=O)c1ccc(Cl)cc1 ) reads 182

Memo: C=C(C(=O)NCc1cc(-c2ccc(C(F)(F)F)cc2)nc(N2CCCC2)c1)N(CC)S(=O)(=O)c1ccc(Cl)cc1 , reported IC50: 40

// field: IC50; key: CCOc1cc(CNC(=O)C2(N(CC)S(=O)(=O)c3ccc(F)cc3)CC2)cc(-c2ccc(C(F)(F)F)cc2)n1 ; value = 87

Lab note: measured IC50 of C=C(C(=O)NCc1ccnc(-c2ccc(OC(F)(F)F)cc2)c1)N(CC)S(=O)(=O)c1ccc(Cl)s1 was 36
